The entries below come with measured GI50 values attached.
Test system: Ly7 DLBCL cells
Experiment: Growth inhibition of DLBCL cells, Ly7
Type: cell-based
Conditions: Table 4; Bcl6 dependent; read-out: GI 50 Ly7
REPORTED_METRIC: GI50

[
  {
    "LINE_NOTATION": "O=C(O)CCN1C(=O)/C(=C2/C(=O)N(CC(=O)OCc3cccc(F)c3)c3ccc(Cl)cc32)SC1=S",
    "EXPERIMENTAL_SYSTEM": "Ly7 DLBCL cells",
    "TEST_RESULT": "> 125 µM"
  },
  {
    "LINE_NOTATION": "C[C@@H](OC(=O)CN1C(=O)/C(=C2\\SC(=S)N(CCC(=O)O)C2=O)c2cc(Cl)ccc21)c1ccccc1",
    "EXPERIMENTAL_SYSTEM": "Ly7 DLBCL cells",
    "TEST_RESULT": "> 125 µM"
  },
  {
    "LINE_NOTATION": "O=C(O)CCN1C(=O)/C(=C2/C(=O)N(CC(=O)OCc3ccc(C(F)(F)F)cc3)c3ccc(Cl)cc32)SC1=S",
    "EXPERIMENTAL_SYSTEM": "Ly7 DLBCL cells",
    "TEST_RESULT": "> 125 µM"
  },
  {
    "LINE_NOTATION": "O=C(O)CCN1C(=O)/C(=C2/C(=O)N(CC(=O)OCc3ccc(F)cc3)c3ccc(Cl)cc32)SC1=S",
    "EXPERIMENTAL_SYSTEM": "Ly7 DLBCL cells",
    "TEST_RESULT": "> 125 µM"
  },
  {
    "LINE_NOTATION": "Cc1cccc(COC(=O)CN2C(=O)/C(=C3\\SC(=S)N(CCC(=O)O)C3=O)c3cc(Cl)ccc32)c1",
    "EXPERIMENTAL_SYSTEM": "Ly7 DLBCL cells",
    "TEST_RESULT": "> 125 µM"
  },
  {
    "LINE_NOTATION": "O=C(O)CCN1C(=O)/C(=C2/C(=O)N(CC(=O)OCc3cccc(C(F)(F)F)c3)c3ccc(Cl)cc32)SC1=S",
    "EXPERIMENTAL_SYSTEM": "Ly7 DLBCL cells",
    "TEST_RESULT": "94 µM"
  }
]
